- target: factor VII/VIIa (Homo sapiens, UniProt P08709)
- Construct: from tissue
- Sequence (P08709 61-466): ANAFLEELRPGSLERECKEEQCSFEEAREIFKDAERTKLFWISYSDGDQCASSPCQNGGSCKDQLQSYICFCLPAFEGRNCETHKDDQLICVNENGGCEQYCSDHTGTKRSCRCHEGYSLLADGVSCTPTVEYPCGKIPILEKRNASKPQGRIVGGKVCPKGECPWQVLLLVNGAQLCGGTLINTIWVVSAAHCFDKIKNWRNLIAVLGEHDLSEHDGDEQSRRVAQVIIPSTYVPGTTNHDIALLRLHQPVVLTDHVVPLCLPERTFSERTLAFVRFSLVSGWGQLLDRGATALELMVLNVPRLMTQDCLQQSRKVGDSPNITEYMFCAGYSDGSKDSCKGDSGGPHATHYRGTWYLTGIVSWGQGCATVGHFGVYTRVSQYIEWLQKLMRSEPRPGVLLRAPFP
- protocol description: Inhibition of factor X activation on J82 cells by huTFh polypeptides
- Assay type: cell-based
- stated conditions: O.D. at 405 nm of factor Xa chromogenic product; 50 ul polypeptide solution at 100 uM; PBS control 0.960, no factor VII 0.005; significant if about 0.500 or less
measure name: Optical Density

H-VFGKDLIYTLYYWKSSSSGKKT-OH [p146-167]	0.004
p161-190: huTFh polypeptide of Table 10; sequence not printed; probably p161-189 (SSSGKKTAKTNTNEFLIDVDKGENYCFSVQ; UniProt P13726 193-222, looked up, fragment)	0.600
H-YENSPEFTPYLETNLGQPTIQSFEQVGTKV-OH [p94-123]	0.818

I = p11-28: huTFh polypeptide; designation represents included residues of FIG. 1; sequence not printed (NLTWKSTNFKTILEWEPK; UniProt P13726 43-60, looked up, fragment)
II = H-EWEPKPVNQVYT-OH [p24-35, H--EWEPKPVNQVYT--OH]
III = H-SGTTNTVAAYNLTWKSTNFKTILEWEPKPV-OH [p1-30]
query: Rank entries according to their Optical Density, from the largest number down. The reply should contain the labels ordered as requested.
result: III, I, II
(III: 1.098, I: 0.687, II: 0.477)
